Source listed as ChEMBL document CHEMBL3988442.

Please respond with reported Percent Effect for every item in the list.
- testedTarget: Shiga toxin 2 (Escherichia coli O157:H7) (UniProt P09385+P09386)
- measurementDescription: E. coli 0.157:H7 Shiga Toxin SOP - stx2 screening assay
- Type: functional
- Design: scale not given: direction of the effect not stated beside the values
- experimentalContext: 30 µM
Enter your answer as a number in %; do not include the unit.

Incoming: Which measured Percent Effect value corresponds to CCC1=N[C@@]2(CC[C@@H]3CN(CC(=O)N(C)C)C[C@@H]32)C(=O)N1CC1CC1 ?
Outgoing: -27.3

Incoming: Which measured Percent Effect value corresponds to CN(Cc1ccc(N2CCCCC2)cc1)Cc1noc(C(C)(C)C)n1 ?
Outgoing: -7.66

Incoming: Which measured Percent Effect value corresponds to Cc1ccc(OCCC(=O)NC2CCc3nc(C)cn3C2)cc1 (stereo unspecified) ?
Outgoing: -17.6

Incoming: Which measured Percent Effect value corresponds to CN(C)CCN(C)C(=O)c1cnc2c(c1)nc(-c1ccccc1Cl)n2C ?
Outgoing: 9.89

Incoming: Which measured Percent Effect value corresponds to Cc1nn(C)c(C)c1CC(=O)N1CCC(Nc2cccnn2)CC1 ?
Outgoing: -23.4

Incoming: Which measured Percent Effect value corresponds to CCCNC(=O)COc1ccc(C)cn1 ?
Outgoing: -36.7

Incoming: Which measured Percent Effect value corresponds to CC(C)N(C)S(=O)(=O)N(C)Cc1ccc2c(c1)OCO2 ?
Outgoing: -23.7

Incoming: Which measured Percent Effect value corresponds to Cc1nc(C)n(C2CCCN(C(=O)CCCOc3ccccc3)C2)n1 (stereo unspecified) ?
Outgoing: 3.84

Incoming: Which measured Percent Effect value corresponds to O=C(COc1coc(CN2CCCCC2)cc1=O)NCc1ccccc1 ?
Outgoing: -39.3

Incoming: Which measured Percent Effect value corresponds to Cc1ccccc1CS(=O)(=O)CC(=O)NC1CCCCNC1=O (stereo unspecified) ?
Outgoing: -14.7

Incoming: Which measured Percent Effect value corresponds to CN(Cc1cccc(O)c1)CC1CCCN(CCc2ccc(Cl)cc2)C1 (stereo unspecified) ?
Outgoing: -33.8
